- Tested on: AncSZ;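 further: 11-residue human phosphosite peptides and single-mutation variants displayed on the E. coli surface, counted by deep sequencing, each peptide's frequency after selection divided by its frequency in the unselected input library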;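 further: frequency after pTyr selection over input frequency; kinase dosed for 20-30% of maximal phosphorylation in three min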
- assay.notes: phosphorylation enrichment, bacterial display (enrichment ratio); higher = better substrate or ligand; peptides without Tyr show the background
property.label: phosphorylation enrichment
# print the numeric value only

biosequence	data.value
TESALYGCTIL [MAP3K21_Y724_V728I]	1.17
RLTEGYTGPFK [ZNF862_Y181_I178T]	0.519
TSSAVYMNLAS [GATAD2B_Y317_I316V]	0.759
PSRKDYETFQP [CTNND2_Y1154_YF]	1.22
DAICYYRMENA [NPHS2_Y195]	2.23

Query STKPQYQPGEN [SRC_Y530_E527K] yields phosphorylation enrichment of 0.575

Query SVTCTYTPALN [TP53_Y126_S127T] yields phosphorylation enrichment of 1.43

Query LLKKVYLMLDN [STAT1_Y203_M202V] yields phosphorylation enrichment of 1.82

Query GLETSYIEDNC [PAH_Y24_Q20L] yields phosphorylation enrichment of 1.04

Query DFPIGYPSFLA [TBCK_Y153_YF] yields phosphorylation enrichment of 0.79

Query KANEFYPVVII [ADAMTS18_Y765_L769I_YF] yields phosphorylation enrichment of 1.03

Query EKPAKYDDIKK [GAPDH_Y255] yields phosphorylation enrichment of 0.782

Query YDRREYSRFEK [ITGB7_Y758] yields phosphorylation enrichment of 0.902

Query PYRSIYFSSPK [MPG_Y75] yields phosphorylation enrichment of 0.878

Query KIEGIYARDET [RPL35A_Y34_V33I] yields phosphorylation enrichment of 0.887

Query GHLFACDWISI [BEST1_Y227_Y227C_YF] yields phosphorylation enrichment of 0.937

Query SDQRRYSLIDR [CLIP2_Y972] yields phosphorylation enrichment of 0.508

The measurements presented in this section are drawn from the supplement of paper PMC10065799.
